assay: Solubility in phosphate buffer at pH 6.5 by lyophilization solubility assay; format: physicochemical
REPORTED_ENDPOINT: log10 of solubility (log10 of the value in µg/mL)
# values: log10(solubility), units µg/mL

Consider the worked cases shown below.
1. CCOc1cc(CN2CCC(Nc3nc4ccc(C(=O)O)cc4o3)CC2)cc(OCC)c1F; 0.78
2. CCOc1cc(CN2CCC(Nc3nc4ccc(Cl)cc4o3)CC2)ccc1Cl; 1.64
3. CCOc1cc(CN2CCC(Nc3nc4cc(S(=O)(=O)N(C)C)ccc4o3)CC2)cc(OCC)c1-n1cccc1; 1.34
4. CCOc1cc(CN2CCC(Nc3nc4cc(Cl)c(S(N)(=O)=O)cc4o3)CC2)ccc1OC; 2.53

# return log10 of solubility for each item in the list
1. CCOc1cc(CN2CCC(Nc3nc4cc(NS(=O)(=O)c5ccccc5)ccc4o3)CC2)ccc1OC
2. CCOc1cc(CN2CCC(Nc3nc4cc(C(=O)O)ccc4o3)CC2)cc(OCC)c1Cl

1. 2.16
2. 1.15

# return log10 of solubility for each item in the list
1. CCOc1cc(CN2CCC(Nc3nc4cc(S(=O)(=O)CC)ccc4o3)CC2)cc(OC2CCOCC2)c1
2. CCOc1cc(CN2CCC(Nc3nc4cc(S(N)(=O)=O)ccc4o3)CC2)cc(OCC)c1N

[2.26, 2.53]

###

assay: Oral bioavailability in Wistar rat administered as single dose; format: ADME, organism-based; details: in vivo
Assign Fulfilled whenever bioavailability does not fall below 6%; assign Not fulfilled whenever it does.

A selection of reference data follows.
1. CCOc1cc(CN2CCC(Nc3nc4cc(C(=O)O)ccc4o3)CC2)cc(OCC)c1Cl; Fulfilled
2. CCOc1cc(CN2CCC(Nc3nc4ccc(Cl)cc4o3)CC2)ccc1Cl; Fulfilled
3. CCOc1cc(CN2CCC(Nc3nc4ccc(C(=O)O)cc4o3)CC2)cc(OCC)c1F; Fulfilled
4. CCOc1cc(CN2CCC(Nc3nc4cc(NS(=O)(=O)c5cn(C)cn5)ccc4o3)CC2)ccc1OC; Not fulfilled
5. CCOc1cc(CN2CCC(Nc3nc4cc(S(N)(=O)=O)ccc4o3)CC2)ccc1OC; Not fulfilled

# bool: bioavailability of CCOc1cc(CN2CCC(Nc3nc4ccc(C(=O)O)cc4o3)CC2)ccc1Cl >= 6%
Fulfilled

Would you mind doing CCOc1cc(CN2CCC(Nc3nc4cc(C(N)=O)ccc4o3)CC2)cc(OCC)c1F as well?
Fulfilled

###

target: hERG (KCNH2) (Homo sapiens); assay: Inhibition of human ERG expressed in CHO cells by patch clamp technique; assay type: cell-based; settings: human, CHO cells expressing human ERG
Sequence (Q12809 whole entry): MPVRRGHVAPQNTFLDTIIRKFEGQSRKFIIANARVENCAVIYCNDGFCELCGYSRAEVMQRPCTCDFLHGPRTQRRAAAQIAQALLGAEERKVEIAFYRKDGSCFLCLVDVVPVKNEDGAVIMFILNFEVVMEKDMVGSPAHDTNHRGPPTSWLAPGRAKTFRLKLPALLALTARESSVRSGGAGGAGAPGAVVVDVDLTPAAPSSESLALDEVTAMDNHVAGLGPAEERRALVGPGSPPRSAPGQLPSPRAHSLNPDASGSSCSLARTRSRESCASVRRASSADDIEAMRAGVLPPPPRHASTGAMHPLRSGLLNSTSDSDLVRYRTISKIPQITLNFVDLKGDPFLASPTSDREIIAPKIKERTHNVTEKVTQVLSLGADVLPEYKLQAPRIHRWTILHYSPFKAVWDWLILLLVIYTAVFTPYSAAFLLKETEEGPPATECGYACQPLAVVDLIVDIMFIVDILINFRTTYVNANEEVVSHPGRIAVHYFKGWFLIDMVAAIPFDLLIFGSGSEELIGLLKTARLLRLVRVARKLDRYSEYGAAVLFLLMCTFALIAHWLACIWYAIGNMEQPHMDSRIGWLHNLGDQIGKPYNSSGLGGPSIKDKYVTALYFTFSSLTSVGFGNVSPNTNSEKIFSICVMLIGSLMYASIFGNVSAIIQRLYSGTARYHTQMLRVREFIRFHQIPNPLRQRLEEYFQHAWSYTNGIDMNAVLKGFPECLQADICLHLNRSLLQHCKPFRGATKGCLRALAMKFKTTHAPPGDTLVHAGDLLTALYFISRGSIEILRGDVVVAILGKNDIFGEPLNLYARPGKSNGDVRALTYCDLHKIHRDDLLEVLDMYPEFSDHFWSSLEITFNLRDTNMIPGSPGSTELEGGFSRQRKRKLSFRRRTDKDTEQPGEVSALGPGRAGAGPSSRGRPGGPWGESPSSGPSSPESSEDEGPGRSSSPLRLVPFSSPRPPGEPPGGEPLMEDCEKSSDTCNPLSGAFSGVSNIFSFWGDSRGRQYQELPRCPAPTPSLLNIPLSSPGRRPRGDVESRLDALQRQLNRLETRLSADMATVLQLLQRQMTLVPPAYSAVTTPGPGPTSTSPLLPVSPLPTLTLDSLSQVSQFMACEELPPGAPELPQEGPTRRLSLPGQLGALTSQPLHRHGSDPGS
REPORTED_ENDPOINT: pIC50
Numbers only, as −log10 of the molar value.

Given CCOc1cc(CN2CCC(Nc3nc4cc(S(N)(=O)=O)ccc4o3)CC2)ccc1OC , state its recorded pIC50.
5.46

###

molecular target: Somatostatin receptor type 5 (Homo sapiens); assay: Displacement of SST14 from human recombinant SST5 receptor expressed in CHO cells by radioligand binding assay
Sequence (P35346 whole entry): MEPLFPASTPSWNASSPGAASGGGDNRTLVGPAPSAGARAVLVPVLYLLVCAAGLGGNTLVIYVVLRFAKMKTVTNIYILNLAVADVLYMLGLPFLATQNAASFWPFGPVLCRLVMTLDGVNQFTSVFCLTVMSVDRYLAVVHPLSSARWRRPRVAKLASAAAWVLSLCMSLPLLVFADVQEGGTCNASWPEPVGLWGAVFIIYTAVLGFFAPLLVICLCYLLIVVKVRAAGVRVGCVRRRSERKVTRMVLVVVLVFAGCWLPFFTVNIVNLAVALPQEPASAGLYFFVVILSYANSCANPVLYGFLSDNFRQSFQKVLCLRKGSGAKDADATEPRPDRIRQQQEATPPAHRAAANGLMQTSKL
pKi: −log10 of the molar value.
Assign Condition met whenever pKi does not fall below 7; assign Condition not met whenever it does.

A selection of reference data follows.
1. CCOc1cc(CN2CCC(Nc3nc4cc(NC(=O)C5CCC5)ccc4o3)CC2)ccc1OC; Condition not met
2. CCOc1cc(CN2CCC(Nc3nc4cc(Cl)ccc4o3)CC2)ccc1OC; Condition not met
3. CCOc1cc(CN2CCC(Nc3nc4cccnc4s3)CC2)ccc1OC; Condition not met
4. CCOc1cc(CN2CCC(Nc3nc4cc(Cl)c(S(N)(=O)=O)cc4o3)CC2)cc(OCC)c1F; Condition not met
5. CCOc1cc(CN2CCC(Nc3nc4ccccc4o3)CC2)cnc1OC; Condition not met

# bool: pKi of CCNc1cc(CN2CCC(Nc3nc4ccccc4o3)CC2)ccc1OC >= 7
Condition not met

Would you mind doing CCOc1cc(CN2CCC(Nc3nc4ccccc4o3)CC2)ccc1OC(C)C as well?
Condition not met

Would you mind doing CCOc1cc(CN2CCC(Nc3nc4cc(Cl)c(S(N)(=O)=O)cc4o3)CC2)ccc1F as well?
Condition not met

src = ChEMBL document CHEMBL1154321
